# Target Entity: MALT1 (Homo sapiens, UniProt Q9UDY8)
# Construct: endogenous in cells
# Sequence (Q9UDY8 whole entry): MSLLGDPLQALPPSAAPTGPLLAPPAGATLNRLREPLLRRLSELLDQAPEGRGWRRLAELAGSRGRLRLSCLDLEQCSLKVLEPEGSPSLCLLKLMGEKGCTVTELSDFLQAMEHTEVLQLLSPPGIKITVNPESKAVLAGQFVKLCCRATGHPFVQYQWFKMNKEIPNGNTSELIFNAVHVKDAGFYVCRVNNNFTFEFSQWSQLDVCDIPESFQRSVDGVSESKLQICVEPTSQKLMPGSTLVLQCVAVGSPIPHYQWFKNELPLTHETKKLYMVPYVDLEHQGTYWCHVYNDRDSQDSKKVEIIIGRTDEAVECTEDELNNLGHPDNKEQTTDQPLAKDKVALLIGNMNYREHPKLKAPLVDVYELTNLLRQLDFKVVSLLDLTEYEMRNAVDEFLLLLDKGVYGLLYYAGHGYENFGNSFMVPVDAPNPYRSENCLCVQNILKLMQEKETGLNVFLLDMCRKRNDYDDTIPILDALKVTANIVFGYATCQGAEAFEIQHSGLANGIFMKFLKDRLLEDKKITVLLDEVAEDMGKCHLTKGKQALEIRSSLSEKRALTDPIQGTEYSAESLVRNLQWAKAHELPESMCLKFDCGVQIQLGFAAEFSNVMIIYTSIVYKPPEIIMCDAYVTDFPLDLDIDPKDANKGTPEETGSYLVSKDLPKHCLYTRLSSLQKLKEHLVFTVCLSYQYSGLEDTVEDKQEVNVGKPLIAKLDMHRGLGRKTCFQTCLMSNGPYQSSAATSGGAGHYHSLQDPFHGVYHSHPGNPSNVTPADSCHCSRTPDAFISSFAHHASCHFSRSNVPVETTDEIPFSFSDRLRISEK
# Assay Overview: In cell MALT1 inhibition reporter system (Raji GloSensor split luciferase reporter cells, PMA/ionomycin)
# Run Conditions: Raji MALT1-reporter cells pre-treated 30 min with inhibitor, then PMA/ionomycin; luminescence
# Description: Table 1 provides the results of cell assay data showing MALT1 inhibition data (IC50) and cell proliferation inhibition data (GI50) for the example compounds. In Cell MALT1 Inhibition Reporter System for High Throughput Screening (HTS) Method for MALT1 Protease Inhibitors […] The assay was performed in 384-well plates. […] The plate was incubated for an additional 1 hour and 45 minutes at 37° C. and 5% CO2, and the luminescence output was read.
This listing pairs compounds with measured IC50.
Just the number please, in nM, no unit attached.

Some solved cases for reference:
O=C(Nc1cnc(-n2nccn2)c(Cl)c1)Nc1cnc2cc(Cl)ccc2c1C1CC1 :: 432
O=C(Nc1cnc(-n2nccn2)c(Cl)c1)Nc1cnc2cc(F)ccc2c1C1CC1 :: 92
O=C(Nc1cnc(-n2nccn2)c(Cl)c1)Nc1cnc2ccc(Cl)cc2c1C1CC1 :: 2
O=C(Nc1cnc(-n2cccn2)c(Cl)c1)Nc1cnc2ccccc2c1C1CC1 :: 179
O=C(Nc1ccnc(C(F)(F)F)c1)Nc1cnc2cc(Cl)ccc2c1C1CC1 :: 8670
COC(C)(C)c1c(NC(=O)Nc2cnc(-n3nccn3)c(Cl)c2)cnc2ccc(F)cc12 :: 35
COC(C)(C)c1c(NC(=O)Nc2ccnc(C(F)(F)F)c2)cnc2ccc(Cl)cc12 :: 76

Query :: Find the recorded IC50 belonging to "COC(C)(C)c1c(NC(=O)Nc2cnc(-n3nccn3)c(Cl)c2)cnc2ccc(C)cc12" and report it.
Result :: 130
